Listing of recorded EC50 by entry.
Molecular target: human CB2 receptors (Homo sapiens, UniProt P34972)
Construct: expressed in transfected cells; host or cells: CHO cells
Sequence (P34972 whole entry): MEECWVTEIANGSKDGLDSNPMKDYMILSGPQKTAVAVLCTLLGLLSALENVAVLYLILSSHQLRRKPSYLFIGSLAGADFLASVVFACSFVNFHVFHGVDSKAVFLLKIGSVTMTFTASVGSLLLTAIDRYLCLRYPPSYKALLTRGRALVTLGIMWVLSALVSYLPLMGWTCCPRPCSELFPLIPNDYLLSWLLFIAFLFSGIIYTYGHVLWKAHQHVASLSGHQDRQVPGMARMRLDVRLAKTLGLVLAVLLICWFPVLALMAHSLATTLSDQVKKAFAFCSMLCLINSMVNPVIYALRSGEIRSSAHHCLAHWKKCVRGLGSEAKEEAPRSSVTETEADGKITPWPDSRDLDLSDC
Test: cAMP assay
Type: cell-based
Write the answer as a number in nM, unit excluded.

Illustrative cases are given below, each with its answer.
                              sample_smiles                           target_of_assay  measured_result
0  Cn1nncc1Cn1nc2nc(C(C)(C)C)nc(N3CCC(F)(F)C3)c2n1  human CB2 receptors (Homo sapiens, UniProt P34972)              2.8
1  Cn1nnnc1Cn1nc2nc(C(C)(C)C)nc(N3CCC(F)(F)C3)c2n1  human CB2 receptors (Homo sapiens, UniProt P34972)              2.3
2  Cc1nnc(Cn2nc3nc(C(C)(C)C)nc(N4CC[C@@](C)(O)C4)c3n2)o1  human CB2 receptors (Homo sapiens, UniProt P34972)              789

Task item: Lab request: please report EC50 under test system human CB2 receptors (Homo sapiens, UniProt P34972) for "Cc1noc(Cn2nc3nc(C(C)(C)C)nc(N4CC(F)(F)C(F)(F)C4)c3n2)n1"
Reply: 4.6
